Tested on: MS2 coat protein
Assay Text: apparent KD of MS2 coat protein; designed switch direction (-1 OFF switch, 1 ON switch): -1; higher = weaker reporter binding
Stated Conditions: input ligand: none
Measurement Type: apparent KD of MS2 coat protein (nM)
Just the number please, in nM, no unit attached.

IN: Entry UUUAGUUCAGGAUAUGUAGAUUUUAACAUGAGGAUCACCCAUGUAGAUCCUGAAUUAACUACAGAAGGGAACAUUA [Exclusion 5: 2:d] (Eterna round: R96, puzzle: Exclusion 5) , system MS2 coat protein: what apparent KD of MS2 coat protein was measured?
OUT: 24.7

IN: Entry AAAUUGGUAGAGGAUAUCGCACAGGAUUUACUGCGAGAAGGCUGCACAUGAGGAUCACCCAUGUUUAGUUGCGA [EX6 #36] (Eterna round: R97, puzzle: Exclusion 6) , system MS2 coat protein: what apparent KD of MS2 coat protein was measured?
OUT: 17.3

IN: Entry UAAAUGUGAGGAUAUUCGUAGAACUCGGAGACGAGUUUUACGGAGAAGGCACAUGAGGAUCACCCAUGUUCCUU [Mat - Exclusion 4 - JL Mod - D2] (Eterna round: R97, puzzle: Exclusion 4) , system MS2 coat protein: what apparent KD of MS2 coat protein was measured?
OUT: 28.6

IN: Entry ACAUUGGUAGUGAGGAUAUCGGUGUGAUAGAAUGCCGAGAAGGCACAUGAGGAUCACCCAUGUAAGAUUGGGCA [JR_BMEx4_Sub043] (Eterna round: R97, puzzle: Brourd's mod of Exclusion 4) , system MS2 coat protein: what apparent KD of MS2 coat protein was measured?
OUT: 186

----------
System: MS2 coat protein
Assay Text: apparent KD of MS2 coat protein; higher = weaker reporter binding
Stated Conditions: Eterna round: R107; input ligand: theophylline 20 uM
Classify by measured apparent KD of MS2 coat protein: met if it is equal to or exceeds 100 nM, not met if it is smaller.

IN: Form field: apparent KD of MS2 coat protein at least 100 nM? Entry: AGAUUCGACACGGCCGCCACUCGUGACGGAUUUCCGAGUGUCGAACAUGAGGAUCACCCAUGUACGAGGACCGGGUGUUGAGUCU [XTryp B #13]
OUT: not met

IN: Form field: apparent KD of MS2 coat protein at least 100 nM? Entry: AACCGAGGCUAUCCUCUAAGAAUAUGUGAUACCAGAAUAAUUUUAUUCCCUUGGCAGCAUGACAUGAGGAUCACCCAUGUGUCUU [SSTheo A #7]
OUT: met

IN: Form field: apparent KD of MS2 coat protein at least 100 nM? Entry: ACAUGAGGAUCACCCAUGUUUGAUGUUCCUCGAGGACCGGUACGGCCGCCACUCGAACGAGUGGCGCGCGAGCGCGCGCUCGCGC [aRa]
OUT: not met

IN: Form field: apparent KD of MS2 coat protein at least 100 nM? Entry: ACGAUAGGACUUGAGGAUCACCCAAGUGAUACCAGCCUGGAAACAGGCCCUUGGCAGCACUAAUACUCCAAUAACCUAUCGAAUA [TheoAX 14 #MicroSwitchBubble #AlternativeMS2]
OUT: met

IN: Form field: apparent KD of MS2 coat protein at least 100 nM? Entry: UGUAUGUGAUUUGAUACCAGACCAGCUGGUGGUACCUGAGGAACACCCAGGUAGGUUUGGGUCCCUUGGCAGCAAAUCGCAUACU [SS Theo B #24 Ms7]
OUT: not met

----------
System: K4 kissing-loop RNA reporter
Assay Text: apparent KD of K4 kissing-loop reporter; higher = weaker reporter binding
Stated Conditions: Eterna round: R107; input ligand: none
Would you mind classing the entries by apparent KD of K4 kissing-loop reporter? Ranges: class 1 = under 300 nM, class 2 = from 300 nM up to 500 nM, class 3 = 500 nM and over

IN: Class? Entry: AAAAUAACCCAGUGAUGUUGGUAUCCAGAUACCAGCGACGAAAGUCGCCCUUGGCAGCUGUGGACGUACAAAAUAAGUACGUCCU
OUT: class 2

IN: Class? Entry: AGAAGGAGACUUGCAACGACUCCUUCAGACUAGGAUAUCAGGAAACUGAGAAGGAGUCUACUUGCAGUGAUGUUGCAAGAAUAAU [[F]''-[K]'-[F]'-[F1]-[F2]-[K1]-[K2]_Design3]
OUT: class 1

IN: Class? Entry: UAAUGGUAAGUGAUGUUUACCUGGAACGAUACCAGUCGCCAUGAGGACCCUUGGCAGCGUCACACAGCCUUCUAGUUGUGGUCUU [theeternabot_sameState_KL_Theo_A_46]
OUT: class 2

IN: Class? Entry: CUCGAGUGAUGUUCGACGCGUCCGUACGAUACCAGCGUAGACCGUCGCCCUUGGCAGCGUGAUGCAGCCCGAAAGUCCGGUUCCU [theeternabot_sameState_KL_Theo_A_26]
OUT: class 3

IN: Class? Entry: GGAGUUACCUGGGAUACCAGUCGGAGUCCCAGAGCACAGAGUGAUGUUCUGGGAUGUUUCGGCCCUUGGCAGCUCUGGGACUCCC [#2 Exclusion - Theophylline B Attempt #13 (HarryS)]
OUT: class 1

IN: Class? Entry: UAACUUGCAGUGAUGUUGCAAGAACUGGAUACCAGCAUGGAAACAUGCCCUUGGCAGCCAGAAGGUAUCCUCUGCAAGAGAUACA [Design1]
OUT: class 2

IN: Class? Entry: AUUAAUUUCAGAGGAUAUCGUUAUUUUUUUAAGUAUAAUCUAUUUUGCAGUGAUGUUGCUAUUAAUCGAGAAGGCUGAUUUAUAA [JR_SSFMNB_Sub020]
OUT: class 1

IN: Class? Entry: UUCGAUCAGUGAUGUUGAUCAAUAGUCGAAGGAGCGCUAUAGAUAGCAGGUAGGUCGCGACUACAAGGUGUUAAGACACCUCGAA [Arg A SS t9]
OUT: class 3

IN: Class? Entry: GAUAGUUAGAGAGAUACCAGCGAUACCUAGAUGGAAAGUGAUGUUCGCCAUCAAUUGCACCGCCCUUGGCAGCUCUCUCUUUGCU [theeternabot_exclusion_KL_Theo_B_37]
OUT: class 3

IN: Class? Entry: UGUACCGAGUCAGGAUAUGGCGUCGAAAGACGAAUUCUAGUGAUGUUAGGGAUCUGCGAAAGCAGUCCAGAAGGGACUUGGUACU [FmnBS 26 U36]
OUT: class 3

----------
Test system: K4 kissing-loop RNA reporter
Assay Text: apparent KD of K4 kissing-loop reporter; higher = weaker reporter binding
Stated Conditions: Eterna round: R107; input ligand: FMN 200 uM
Classify by measured apparent KD of K4 kissing-loop reporter: t if it is equal to or exceeds 300 nM, f if it is smaller.

IN: Form field: apparent KD of K4 kissing-loop reporter at least 300 nM? Entry: CCAUCGCUAUUCGAUACCAGCUACUUAGUGAUGUUAAGUUUUUACCCACUGUAGGUGGGAAGCCCUUGGCAGCGAAUAGUGAUGG [Theophylline B K4 27]
OUT: f

IN: Form field: apparent KD of K4 kissing-loop reporter at least 300 nM? Entry: UAUAUAGUGACGGCCGCCACUAUAGUGAUGUUAUUGUUAGAGUGAUGUUUUGUUGUUUAAUUUUGUAGGACCGGGUUAUAUGUUA [tbbtmullin]
OUT: t

IN: Form field: apparent KD of K4 kissing-loop reporter at least 300 nM? Entry: GGGAUAGGAUCAGUGAUGUUGGUCCCAGAUACCAGACAAAGUCACGUCCCUUGGCAGCUGAUGAUCGCUGACGACCGGCCUCCAA [theeternabot_sameState_KL_Theo_A_7]
OUT: f

IN: Form field: apparent KD of K4 kissing-loop reporter at least 300 nM? Entry: GUUAUGGACCUUUUGAUCGUUCGUAGCGAUACCAGACAAUGGGCAGUCCCUUGGCAGCGCUAAUUGAGUGAUGUUCAAACGUGCA [theeternabot_exclusion_KL_Theo_A_46]
OUT: t

IN: Form field: apparent KD of K4 kissing-loop reporter at least 300 nM? Entry: AAUCGCGAGUCAGAUACCAGUUGGCUCGAGAGUCAGUGAUGUUGAUGUAAAUCUUAGGCGAACCCUUGGCAGCUGUCACCAGUCC [theeternabot_sameState_KL_Theo_B_27]
OUT: t

----------
Test system: K4 kissing-loop RNA reporter;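 also: bound reporter read as fluorescence of individual clusters on recovered sequencing chips by microscopy, with normalized cluster intensities fitted with a binding model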
Assay Text: apparent KD of K4 kissing-loop reporter; higher = weaker reporter binding
Stated Conditions: Eterna round: R107; input ligand: theophylline 20 uM
Measurement Type: apparent KD of K4 kissing-loop reporter (nM)
Just the number please, in nM, no unit attached.

IN: Name the reported apparent KD of K4 kissing-loop reporter value associated with the sequence CAGCCUGGUCAGUGAUGUUGGCCGCAGGGAAAGGAUAUUGUGUUGGCAAGAAGGUUCGCUUGAUCGUUGGCCCAUGCAUGGGCCU [theeternabot_sameState_KL_FMN_A_44]
OUT: 280

IN: Name the reported apparent KD of K4 kissing-loop reporter value associated with the sequence UAUUCUAAUGCGGCCGCCACUGGAAGUGAUGUUUCCUCUGGCUAUCAUUUCGGACGGUAUUGUCCCAGGACCGGGCAUCCCUCUC [theeternabot_exclusion_KL_Trp_B_4]
OUT: 104

IN: Name the reported apparent KD of K4 kissing-loop reporter value associated with the sequence GGCGGCCGCGCGCAAGCGCGGCCGGCCGAUACCAGCGCGACGGCGCGCCCUUGGCAGCGGCGCCGAGUGAUGUUCGGCCUGCCGG [#2 Same State - Theophylline A Attempt #16 (HarryS)]
OUT: 454

IN: Name the reported apparent KD of K4 kissing-loop reporter value associated with the sequence UCACAGUCCAAAGGAUAUUGAGUGCGCGUGCGAUUUAAGCUGAAGCCGUAGCUAGUGAUGUUAGCCCAAGAAGGUUGGUAGCCAG [theeternabot_exclusion_KL_FMN_B_16]
OUT: 193
